# experimental target: Fibroblast growth factor receptor 2 (Homo sapiens)
# details: Compound concentration 20.0 uM
# Description: Thermal Shift Assay. Domain: start/stop: T457-E768
For each of the compounds below, state its ΔTm.
Answers are plain numbers, in °C.

Some solved cases for reference:
{"columns": ["compound", "experimental target", "unit name", "ΔTm"],
 "data": [
  ["COc1cc2/c(=N/c3ccc(Br)cc3F)nc[nH]c2cc1OCC1CCN(C)CC1", "Fibroblast growth factor receptor 2 (Homo sapiens)", "°C", 5.47],
  ["NC(=O)c1cccc(NC(=O)CCC(=O)NCCc2cn(CCNS(=O)(=O)c3cccc(C(=O)O)c3)nn2)c1", "Fibroblast growth factor receptor 2 (Homo sapiens)", "°C", -1.91],
  ["CC(C)(C)OC(=O)N1CCN(C(=O)n2cc(-c3ccc(OC(F)(F)F)cc3)nn2)C(Cc2ccccc2)C1 (stereo not given)", "Fibroblast growth factor receptor 2 (Homo sapiens)", "°C", -0.77],
  ["CCNC(=O)c1cc2c(-c3cc(C(C)(C)O)ccc3Oc3c(C)cc(F)cc3C)cn(C)c(=O)c2[nH]1", "Fibroblast growth factor receptor 2 (Homo sapiens)", "°C", 0.28]
]}

Below: the item to evaluate.
Item under review: `O=C(NCC1CCOCC1)c1n[nH]cc1NC(=O)c1c(F)cccc1F` . Reported ΔTm?
0.69

###

# experimental target: Fibroblast growth factor receptor 2 (Homo sapiens) (UniProt P21802)
# Sequence (P21802 22-821 limits assumed): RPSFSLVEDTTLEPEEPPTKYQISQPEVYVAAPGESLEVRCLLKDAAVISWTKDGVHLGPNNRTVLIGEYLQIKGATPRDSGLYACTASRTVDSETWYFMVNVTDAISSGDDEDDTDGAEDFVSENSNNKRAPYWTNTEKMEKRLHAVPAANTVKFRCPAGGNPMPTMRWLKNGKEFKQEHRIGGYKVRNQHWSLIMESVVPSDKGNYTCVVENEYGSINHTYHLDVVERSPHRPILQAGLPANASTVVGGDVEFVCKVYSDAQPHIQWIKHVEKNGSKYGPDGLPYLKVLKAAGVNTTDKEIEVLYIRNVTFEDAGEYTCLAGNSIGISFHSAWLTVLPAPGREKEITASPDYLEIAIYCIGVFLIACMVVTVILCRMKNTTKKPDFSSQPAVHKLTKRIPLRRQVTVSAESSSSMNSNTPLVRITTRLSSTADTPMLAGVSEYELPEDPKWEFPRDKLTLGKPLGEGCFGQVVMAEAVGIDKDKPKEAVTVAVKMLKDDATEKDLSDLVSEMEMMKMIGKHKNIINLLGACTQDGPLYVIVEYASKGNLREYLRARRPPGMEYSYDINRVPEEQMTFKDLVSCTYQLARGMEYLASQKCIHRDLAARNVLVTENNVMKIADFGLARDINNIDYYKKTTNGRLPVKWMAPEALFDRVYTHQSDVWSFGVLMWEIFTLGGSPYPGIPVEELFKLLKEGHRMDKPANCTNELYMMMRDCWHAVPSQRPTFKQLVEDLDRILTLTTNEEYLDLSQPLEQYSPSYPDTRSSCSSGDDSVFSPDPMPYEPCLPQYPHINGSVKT
# details: Compound concentration 20.0 uM
Label satisfied when ΔTm is strictly below -0.5 °C; otherwise label not satisfied.

Some solved cases for reference:
{"columns": ["compound", "label value"],
 "data": [
  ["CN(C)Cc1ccc(-c2nc3cccc4c3n2CCNC4=O)cc1", "not satisfied"],
  ["COc1ccc(-c2ccc(-c3cn(C(=O)N4CCCCC4c4ccccc4)nn3)cc2)cc1 (centres undefined)", "not satisfied"],
  ["CNc1cc(-c2cccc(Cl)c2Cl)nc(N)n1", "satisfied"],
  ["COc1ncc(C)c(-c2ccc3c(c2)[nH]c(=O)c2cnn([C@H]4CCOC4)c23)c1C", "satisfied"],
  ["CCC(CC)N(CCN(C)C(=O)CCC(=O)O)Cc1cccc(C(=O)Nc2sc3c(c2C(=O)c2cnn(-c4ccc(Cl)c(C(F)(F)F)c4)c2)CCC(C)(C)C3)c1", "satisfied"]
]}

Does this compound meet the criterion ΔTm < -0.5 °C? `CCCOc1cccc(Oc2cc3c(cc2NS(=O)(=O)c2cccc(C(=O)NCCOCCOCCOCC(=O)N[C@H](C(=O)N4C[C@H](O)C[C@H]4C(=O)NCc4ccc(-c5scnc5C)cc4)C(C)(C)C)c2)n(C)c(=O)n3C)c1`
satisfied

Does this compound meet the criterion ΔTm < -0.5 °C? `Cn1cc(C(=O)Nc2ccc([C@@H]3C[C@H]3NCC3CC3)cc2)cn1`
satisfied

Does this compound meet the criterion ΔTm < -0.5 °C? `Cc1cc(-n2cccc2)c(S(C)(=O)=O)cc1C(=O)N=C(N)N`
satisfied

Does this compound meet the criterion ΔTm < -0.5 °C? `C(=C\c1ccccc1)/CN1CCN(CCOC(c2ccccc2)c2ccccc2)CC1`
not satisfied

###

For each of the molecules below, state its ΔTm.
# experimental target: UniProt P21802
# details: Compound concentration 20.0 uM
Remember to put the unit after the number in your answer.

Some solved cases for reference:
{"columns": ["chem smiles", "outcome measure", "recorded measurement"],
 "data": [
  ["O=C(c1ccc2[nH]ccc2c1)N1CCN(S(=O)(=O)c2ccc3[nH]c(=O)oc3c2)CC1", "ΔTm", "1.77 °C"],
  ["N[C@@H](CC(=O)N1CCN(C(c2ccc(F)cc2)c2ccc(F)cc2)CC1)C(=O)N1Cc2ccccc2C1", "ΔTm", "0 °C"],
  ["O=[N+]([O-])c1ccc(CSc2ncnc3c2ncn3[C@@H]2O[C@H](CO)[C@@H](O)[C@H]2O)cc1", "ΔTm", "0.22 °C"]
]}

Please state, for each entry, its recorded ΔTm.
1. COC(=O)[C@H]1[C@H]2C[C@@H]3c4[nH]c5cc(OC)ccc5c4CCN3C[C@H]2C[C@@H](OC(=O)c2cc(OC)c(OC)c(OC)c2)[C@@H]1OC
2. O=C(NCCCc1ccccc1)c1cccc(-c2cc(O)c3ncccc3c2)c1
3. COc1ccc(N(C(=O)Oc2c(C)cccc2C)c2ccnc(Nc3ccc(N4CCN(C)CC4)cc3)n2)c(OC)c1
4. O=C(c1cc(Cl)c(O)c(Cl)c1)N1CS(=O)(=O)c2ccccc21
5. CCN(CC)S(=O)(=O)c1cc(Nc2nccc(-c3ccnc(-c4ccc(NC(=O)NC)cc4)c3)n2)ccc1Cl

1: -0.07 °C; 2: 0.19 °C; 3: 4.44 °C; 4: 0.39 °C; 5: -4.8 °C
